- System: HT1080
- protocolDetails: relative viability vs DMSO control (72 h) (fraction); higher = more viable cells
- conditionDetails: 0.00457 µM
Entries annotated with measured relative viability
Please give only the number in your answer, with no unit.

Consider the worked cases shown below.
INSERT INTO measurements (testsmiles, measvalue) VALUES
  ('CN1CCN(CCOc2cc(OC3CCOCC3)c3c(Nc4c(Cl)ccc5c4OCO5)ncnc3c2)CC1', 1.01),
  ('CCCS(=O)(=O)N[C@H]1C[C@@H](N(C)c2ncnc3[nH]ccc23)C1', 1.02),
  ('C[C@@H]1COC(Nc2ccc3ncnc(Nc4ccc(OCc5nccs5)c(Cl)c4)c3c2)=N1', 1.05),
  ('FC(F)(F)c1ccc(CNc2ccc(Cc3c[nH]c4ncc(Cl)cc34)cn2)cn1', 1.05),
  ('C#Cc1cccc(Nc2ncnc3cc(OCCOC)c(OCCOC)cc23)c1', 1.08);

Q: Could you tell me which relative viability is on file for `CO[C@@H]1[C@H](N(C)C(=O)c2ccccc2)C[C@H]2O[C@]1(C)n1c3ccccc3c3c4c(c5c6ccccc6n2c5c31)C(=O)NC4` ?
Result: 0.986

* * *

- Tested on: SK-ES-1
- protocolDetails: relative viability vs DMSO control (72 h) (fraction); higher = more viable cells
- conditionDetails: 1.111 µM
outcomeMeasure: relative viability
Please give only the number in your answer, with no unit.

INSERT INTO measurements (testsmiles, measvalue) VALUES
  ('CNC(=O)c1cc(Oc2ccc(NC(=O)Nc3ccc(Cl)c(C(F)(F)F)c3)cc2)ccn1', 0.96),
  ('CCN(c1cc(-c2ccc(CN3CCOCC3)cc2)cc(C(=O)NCc2c(C)cc(C)[nH]c2=O)c1C)C1CCOCC1', 0.991);

Next item in the queue.
Q: Could you tell me which relative viability is on file for `CC[C@@H]1C(=O)N(C)c2cnc(Nc3ccc(C(=O)N[C@H]4CC[C@H](N5CCN(CC6CC6)CC5)CC4)cc3OC)nc2N1C(C)C` ?
Result: 0.0871

* * *

- Tested on: HT1080
- protocolDetails: relative viability vs DMSO control (72 h) (fraction); higher = more viable cells
- conditionDetails: 0.01372 µM
outcomeMeasure: relative viability

INSERT INTO results (testsmiles, outcomemeasure, measvalue) VALUES
  ('Cc1cc(Nc2ncc(Cl)c(Nc3ccccc3S(=O)(=O)C(C)C)n2)c(OC(C)C)cc1C1CCNCC1', 'relative viability', 1.02),
  ('CCCCCCCCCCCCCCCCCCOP(=O)([O-])OC1CC[N+](C)(C)CC1', 'relative viability', 1.06),
  ('FC(F)(F)c1ccc(CNc2ccc(Cc3c[nH]c4ncc(Cl)cc34)cn2)cn1', 'relative viability', 1.1),
  ('CCCS(=O)(=O)N[C@H]1C[C@@H](N(C)c2ncnc3[nH]ccc23)C1', 'relative viability', 1.05),
  ('CCN(c1cc(-c2ccc(CN3CCOCC3)cc2)cc(C(=O)NCc2c(C)cc(C)[nH]c2=O)c1C)C1CCOCC1', 'relative viability', 1.08),
  ('CO[C@@H]1[C@H](N(C)C(=O)c2ccccc2)C[C@H]2O[C@]1(C)n1c3ccccc3c3c4c(c5c6ccccc6n2c5c31)C(=O)NC4', 'relative viability', 1.04);

Next item in the queue.
Q: Could you tell me which relative viability is on file for `NC(=O)c1cnc2[nH]ccc2c1N[C@@H]1[C@@H]2CC3C[C@H]1C[C@@](O)(C3)C2` ?
Result: 1.03

* * *

- Test system: HT1080
- protocolDetails: relative viability vs DMSO control (72 h) (fraction); higher = more viable cells
- conditionDetails: 0.00051 µM
outcomeMeasure: relative viability
Please give only the number in your answer, with no unit.

Consider the worked cases shown below.
INSERT INTO assay_data (compound, studytarget, measvalue) VALUES
  ('N#Cc1ccnc(N2C(=O)CC[C@H]2C(=O)N(c2cncc(F)c2)[C@H](C(=O)NC2CC(F)(F)C2)c2ccccc2Cl)c1 [Ivosidenib]', 'HT1080', 1.07),
  ('C=CC(=O)Nc1cc(Nc2nccc(-c3cn(C)c4ccccc34)n2)c(OC)cc1N(C)CCN(C)C [Osimertinib]', 'HT1080', 1.09),
  ('CC[C@@H]1C(=O)N(C)c2cnc(Nc3ccc(C(=O)N[C@H]4CC[C@H](N5CCN(CC6CC6)CC5)CC4)cc3OC)nc2N1C(C)C [Volasertib]', 'HT1080', 1.06);

Q: Could you tell me which relative viability is on file for Cc1ccc(NC(=O)c2ccc(CN3CCN(C)CC3)cc2)cc1Nc1nccc(-c2cccnc2)n1 [Imatinib] ?
Result: 1

Q: Moving on to CCN(c1cc(-c2ccc(CN3CCOCC3)cc2)cc(C(=O)NCc2c(C)cc(C)[nH]c2=O)c1C)C1CCOCC1 [Tazemetostat]
Result: 1.1

Q: Moving on to CNC(=O)c1cc(Oc2ccc(NC(=O)Nc3ccc(Cl)c(C(F)(F)F)c3)cc2)ccn1 [Sorafenib]
Result: 1.06

Q: Moving on to Cc1c(F)cc(C(=O)NC2CC2)cc1-c1ccc(C(=O)NCC(C)(C)C)cn1 [Losmapimod]
Result: 1.09

Q: Moving on to C[C@@H](Oc1cc(-c2cnn(C3CCNCC3)c2)cnc1N)c1c(Cl)ccc(F)c1Cl [Crizotinib]
Result: 1.05

Q: Moving on to Cc1cn(-c2cc(NC(=O)c3ccc(C)c(Nc4nccc(-c5cnccn5)n4)c3)cc(C(F)(F)F)c2)cn1 [Radotinib]
Result: 1.06

Q: Moving on to CCN(CCCOc1ccc2c(Nc3cc(CC(=O)Nc4cccc(F)c4)[nH]n3)ncnc2c1)CCOP(=O)(O)O [Barasertib]
Result: 1.04

* * *

Entries annotated with measured relative viability
- Tested on: MES-SA
- protocolDetails: relative viability vs DMSO control (72 h) (fraction); higher = more viable cells
- conditionDetails: 10 µM
Please give only the number in your answer, with no unit.

Consider the worked cases shown below.
INSERT INTO results (testsmiles, measvalue) VALUES
  ('CN1CCN(CCOc2cc(OC3CCOCC3)c3c(Nc4c(Cl)ccc5c4OCO5)ncnc3c2)CC1', 0.622),
  ('COc1cc2ncnc(Nc3ccc(F)c(Cl)c3)c2cc1NC(=O)/C=C/CN1CCCCC1', 0.00577);

Next item in the queue.
Q: Could you tell me which relative viability is on file for `CNC(=O)c1cc(Oc2ccc(NC(=O)Nc3ccc(Cl)c(C(F)(F)F)c3)cc2)ccn1` ?
Result: 0.135

* * *

- Test system: MES-SA
- protocolDetails: relative viability vs DMSO control (72 h) (fraction); higher = more viable cells
- conditionDetails: 0.3704 µM
outcomeMeasure: relative viability
Please give only the number in your answer, with no unit.

Consider the worked cases shown below.
INSERT INTO results (compound, outcomemeasure, measvalue) VALUES
  ('Cc1cc(Nc2ncc(Cl)c(Nc3ccccc3S(=O)(=O)C(C)C)n2)c(OC(C)C)cc1C1CCNCC1 [Ceritinib]', 'relative viability', 0.98),
  ('Cc1nc(Nc2ncc(C(=O)Nc3c(C)cccc3Cl)s2)cc(N2CCN(CCO)CC2)n1 [Dasatinib]', 'relative viability', 0.791),
  ('NC(=O)c1cnc2[nH]ccc2c1N[C@@H]1[C@@H]2CC3C[C@H]1C[C@@](O)(C3)C2 [Peficitinib]', 'relative viability', 0.971);

Next item in the queue.
Q: Could you tell me which relative viability is on file for C[C@@H](Oc1cc(-c2cnn(C3CCNCC3)c2)cnc1N)c1c(Cl)ccc(F)c1Cl [Crizotinib] ?
Result: 0.536

* * *

- Test system: SW872
- protocolDetails: relative viability vs DMSO control (72 h) (fraction); higher = more viable cells
- conditionDetails: 0.00051 µM
Entries annotated with measured relative viability
Please give only the number in your answer, with no unit.

Consider the worked cases shown below.
INSERT INTO measurements (testsmiles, studytarget, measvalue) VALUES
  ('COc1cc(Nc2c(C#N)cnc3cc(OCCCN4CCN(C)CC4)c(OC)cc23)c(Cl)cc1Cl', 'SW872', 1.13),
  ('NC(=O)c1cccc2cn(-c3ccc([C@@H]4CCCNC4)cc3)nc12', 'SW872', 1.04);

Q: Could you tell me which relative viability is on file for `CCN(c1cc(-c2ccc(CN3CCOCC3)cc2)cc(C(=O)NCc2c(C)cc(C)[nH]c2=O)c1C)C1CCOCC1` ?
Result: 1.07

Q: Moving on to `C1=N/C2=N/c3ccc(OCCN4CCCC4)c(c3)COC/C=C/COCc3cccc(c3)C(=C1)N2`
Result: 1.08

Q: Moving on to `N#CCC1(n2cc(-c3ncnc4[nH]ccc34)cn2)CN(C2CCN(C(=O)c3ccnc(C(F)(F)F)c3F)CC2)C1`
Result: 1.03

Q: Moving on to `Cc1c(F)cc(C(=O)NC2CC2)cc1-c1ccc(C(=O)NCC(C)(C)C)cn1`
Result: 1.08

Q: Moving on to `CO[C@H]1C[C@@H]2CC[C@@H](C)[C@@](O)(O2)C(=O)C(=O)N2CCCC[C@H]2C(=O)O[C@H]([C@H](C)C[C@@H]2CC[C@@H](O)[C@H](OC)C2)CC(=O)[C@H](C)/C=C(\C)[C@@H](O)[C@@H](OC)C(=O)[C@H](C)C[C@H](C)/C=C/C=C/C=C/1C`
Result: 0.787
